// provenance: ChEMBL document CHEMBL3988442

- TEST_SYSTEM: AMP-activated protein kinase, AMPK (Homo sapiens) (UniProt P54646+O43741+P54619+Q9UGJ0+Q9Y478+Q13131+Q9UGI9)
- METHOD_NOTES: AMP-dependent Kinase enzyme assay. An in vitro enzyme assay that detects ADP turnover that is directly proportional to AMPK activity. This uses naive AMPK that is activated during the assay with MK-8722
- Format: functional
- Parameters: scale not given: direction of the effect not stated beside the values
- CONDITIONS_USED: 30 µM
# Percent Effect per entry
Give the quantity in %, number only.

Known results for compounds:
COC(=O)c1cccc(S(=O)(=O)NCC(c2ccco2)N2CCCC2)c1 (configuration not stated); -6.45
O=C(CCn1cnnn1)N1CCCC(CO)(CCc2ccccc2)C1 (configuration not stated); 6.31
CN1CCOC(CNCC(=O)NCCCc2ccccc2)C1 (configuration not stated); -10

Record COc1ccc(OC)c(C(C(=O)O)N2CCSCC2)c1 (configuration not stated) , field Percent Effect: 0.166

Record `CCN(CC)S(=O)(=O)CC(=O)Nc1ccsc1` , field Percent Effect: 2.3

Record `Fc1cccc(OC2CCN(CCn3cc4ccccc4n3)CC2)c1` , field Percent Effect: 7.33

Record `O=C(Nc1ccc2c(c1)C(=O)NC2=O)c1cccs1` , field Percent Effect: 16.2

Record CC1(c2ncc(CN3CCOCC3)cn2)CCCCO1 (configuration not stated) , field Percent Effect: 9.84

Record COC(=O)CC1CCCCN1CC(=O)NCCc1ccc(F)cc1 (configuration not stated) , field Percent Effect: 6.06

Record `O=C(Nc1cccc(F)c1)NC1CCN(Cc2ccncc2)CC1` , field Percent Effect: 1.71

Record `COc1ccc(Br)c(NC(=O)NCc2cnn(C)c2)c1` , field Percent Effect: -1.99

Record CC(C)n1ccc(C(=O)OCC2CC(=O)N(Cc3ccccc3)C2)n1 (configuration not stated) , field Percent Effect: 7.89

###

- TEST_SYSTEM: AMP-activated protein kinase, AMPK (Homo sapiens) (UniProt P54646+O43741+P54619+Q9UGJ0+Q9Y478+Q13131+Q9UGI9)
- METHOD_NOTES: AMP-dependent Kinase enzyme assay. An in vitro enzyme assay that detects ADP turnover that is directly proportional to AMPK activity. This uses naive AMPK that is activated during the assay with MK-8722
- Assay type: functional
- Design: scale not given: direction of the effect not stated beside the values
- CONDITIONS_USED: 30 µM
OBSERVABLE: Percent Effect (%)
Give the quantity in %, number only.

COCCOc1ccc(F)cc1NCc1nc2ccccc2n1C; 8.68
CC(=O)N1CCc2c(nc(N(C)C)nc2NCCCn2ccnc2)C1; 2.43
Cc1nc(CCN(C)C(=O)CN2CCCCCC2)no1; 1.14
CC(C#N)NS(=O)(=O)c1cccc(C(C)C)c1 (stereo unspecified); 0.482
CCn1nc(C)c(C(=O)N2C[C@@H](CN(C)CCOC)[C@@H](CO)C2)c1C; -7.64

// next entry
Record `Cc1nc(CN(C)S(=O)(=O)c2ccccc2C(F)(F)F)no1` , field Percent Effect: 4.4

###

- TEST_SYSTEM: Proteasome subunit beta (Trypanosoma cruzi)
- METHOD_NOTES: Trypanosoma cruzi proteasome chymotrypsin-like activity (TcProtChymo) assay. Also: in the data most compounds retested in dose-response had high values.
- Assay type: functional
- Design: scale not given: direction of the effect not stated beside the values
- CONDITIONS_USED: 9.37 µM
OBSERVABLE: Percent Effect (%)
Give the quantity in %, number only.

Record CN(C)CC(=O)N1CCC2(CC(=O)N(c3cccc(C#N)c3)C2)C1 (stereo unspecified) , field Percent Effect: 13

Record CS(=O)(=O)NCC1CCCN(C(=O)COCc2ccccc2)C1 (stereo unspecified) , field Percent Effect: 1.96

Record CC1(C)OCC(CNC(=O)c2cnn(-c3cc(Cl)ccc3Cl)c2N)O1 (stereo unspecified) , field Percent Effect: 17.1

Record Cc1ccc(NC(=O)C(C)N2CCCN(c3nccs3)CC2)c(C)c1 (stereo unspecified) , field Percent Effect: 14.1

Record `CCc1nc(CN2CCN(C(=O)C3CCCCC3)CC2)cs1` , field Percent Effect: 8.28

Record `NC(=O)N1CCC2(CC1)CN(Cc1cccnc1)C(=O)CO2` , field Percent Effect: 8.5

Record Cc1cccc(CN2CCC3(CCN(c4ccccn4)C3)C2=O)c1 (stereo unspecified) , field Percent Effect: 14

Record `CO[C@@H]1CCN(C(=O)c2ccccn2)[C@H]1Cc1ccccc1` , field Percent Effect: 6.95

Record `COCCN1C[C@H]2[C@@H](C1)N(C(=O)c1cccs1)CC[C@H]2OC` , field Percent Effect: 4.5

Record `CNC(=O)CN1CCCC12CCN(C(=O)c1ccc(F)cc1)CC2` , field Percent Effect: 8.33

Record CN(C)CCCn1ccnc1C1CCCN(c2cc(N)ncn2)C1 (stereo unspecified) , field Percent Effect: 4.97
